Measured values drawn from ChEMBL document CHEMBL3433997 for this set.

- Target entity: Solute carrier family 2, facilitated glucose transporter member 1 (Homo sapiens)
- Protocol summary: ST_JUDE_LEISH: Cytotoxicity at 2uM final concentration against transgenic Leishmania Mexicana promastigotes LmGLUT1 that are glucose transport deficient and complemented with the human glucose transporter GLUT1. Activity is measured by DNA content using SYBR green in vitro
- Format: functional
Reported metric: inhibition (%)

[[record]]
smiles_text = "O=S(=O)(Nc1cc2c(cc1OCCCN1CCCCC1)CCNCC2)c1ccc(-c2ccc(Cl)cc2)cc1"
value_reported = 1.29

[[record]]
smiles_text = "COCCNCc1ccc(-c2ccccc2CNC2CCN(Cc3ccccc3)CC2)cc1"
value_reported = 1.97

[[record]]
smiles_text = "CN(Cc1ccccc1)C1CCN(c2cc(NC(=O)c3cccc(F)c3)ccn2)CC1"
value_reported = 6.87

[[record]]
smiles_text = "COc1ccc(CN(C)CCOc2ccc(NC(=O)c3cccc4c(=O)c5cc(SC)ccc5[nH]c34)cc2)cc1OC"
value_reported = 10.2

[[record]]
smiles_text = "FC(F)(F)c1ccc2[nH]c(-c3cccc(-c4cccc(CNCCN5CCNCC5)c4)c3)nc2c1"
value_reported = -0.06

[[record]]
smiles_text = "O=C(NCCCCN1CCN(c2cccc3ccccc23)CC1)c1ccc(NC(=O)c2ccc(Cl)cc2)cc1"
value_reported = 2.65

[[record]]
smiles_text = "O=C(Nc1ccc(OC2CCN(CC3CC3)CC2)c(Cl)c1)c1ccc2ncccc2c1"
value_reported = 8.41

[[record]]
smiles_text = "CC(C)CNCc1cccc(-c2cccc(CNCCCN3CCN(C)CC3)c2)c1"
value_reported = 2.03

[[record]]
smiles_text = "Cc1cc(C)c(NC(=O)N2CCCN(CCCCCNC(=O)/C=C/c3ccc(Cl)c(Cl)c3)CC2)c(C)c1"
value_reported = 3.44

[[record]]
smiles_text = "COc1cc([N+](=O)[O-])ccc1NC(=O)Nc1ccc(OC(F)(F)F)cc1"
value_reported = 1.06

[[record]]
smiles_text = "N=C(N)c1ccc2[nH]c(SCc3ccccc3)nc2c1"
value_reported = 1.18

[[record]]
smiles_text = "COc1cc2nc(-c3ccccc3)nc(N3CCN(CC(=O)N4CCCC4)CC3)c2cc1OC"
value_reported = 3.46

